Provenance of the data: paper PMC5483439

# target system: hKCNK18 (Homo sapiens, UniProt Q7Z418)
# Sequence (Q7Z418 whole entry): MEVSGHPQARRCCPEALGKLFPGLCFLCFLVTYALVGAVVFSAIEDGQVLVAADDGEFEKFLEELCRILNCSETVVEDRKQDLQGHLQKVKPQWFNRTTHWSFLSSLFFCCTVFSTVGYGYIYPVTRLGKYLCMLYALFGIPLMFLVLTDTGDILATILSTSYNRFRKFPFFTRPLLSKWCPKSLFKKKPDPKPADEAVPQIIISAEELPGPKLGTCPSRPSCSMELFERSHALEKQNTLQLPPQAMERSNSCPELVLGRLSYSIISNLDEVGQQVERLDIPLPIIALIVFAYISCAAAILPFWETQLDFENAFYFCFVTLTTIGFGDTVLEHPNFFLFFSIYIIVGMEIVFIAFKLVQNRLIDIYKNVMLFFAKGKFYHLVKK
# procedure summary: Two-electrode voltage clamp on Xenopus laevis oocytes expressing hKCNK18
# reported conditions: N = 3–6
# From the text: Human KCNK3 (TASK-1, K2P3.1) cloned into the expression vector pIRES-CD8 was a gift from Dr. Fabrice Duprat (Institut National de la Santé et de la Recherche Médicale, Antipolis, France). Human KCNK18 (hTRESK, K2P18.1), cloned into the plasmid pEXO, was a gift from Dr. P. Enyedi (Semmelweis University, Budapest, Hungary). These plasmids were linearized with the restriction enzymes BamHI and XbaI, respectively, and then used as templates for in vitro transcription. […]
value kind: pIC50
Lab note — pIC50 values are minus log10 of concentrations in M.

Report pIC50 for O=C(/C=C/C=C/c1ccc2c(c1)OCO2)N1CCCC1 please.
3.60

---

# target system: hKCNK3 (Homo sapiens, UniProt O14649)
# Construct: expressed in transfected cells; host or cells: Xenopus laevis oocytes injected with cRNA (plasmid pIRES-CD8, gift of Dr. Fabrice Duprat)
# Sequence (O14649 whole entry): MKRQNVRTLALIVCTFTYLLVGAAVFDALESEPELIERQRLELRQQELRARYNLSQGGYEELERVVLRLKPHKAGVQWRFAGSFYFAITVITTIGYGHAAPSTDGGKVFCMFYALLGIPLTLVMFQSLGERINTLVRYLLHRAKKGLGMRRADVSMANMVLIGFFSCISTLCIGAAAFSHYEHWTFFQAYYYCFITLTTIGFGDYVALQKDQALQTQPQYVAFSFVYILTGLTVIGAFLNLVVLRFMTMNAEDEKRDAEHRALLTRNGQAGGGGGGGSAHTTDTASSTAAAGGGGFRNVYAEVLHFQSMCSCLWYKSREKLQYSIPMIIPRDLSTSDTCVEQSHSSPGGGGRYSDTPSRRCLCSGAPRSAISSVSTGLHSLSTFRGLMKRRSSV
# procedure summary: Two-electrode voltage clamp on Xenopus laevis oocytes expressing hKCNK3
# Assay type: cell-based
# reported conditions: hKCNK3 in Xenopus oocytes
value kind: % of basal activity after saturating concentrations

Illustrative cases are given below, each with its answer.
{"compound": "O=C(/C=C/C=C/CCCCCC/C=C/c1ccc2c(c1)OCO2)N1CCCC1 [4b, brachyamide A]", "data value": "51 ± 5%"}
{"compound": "O=C(/C=C/C=C/CC/C=C/c1ccc2c(c1)OCO2)N1CCCCC1 [3a, dehydropipernonaline]", "data value": "39 ± 1%"}
{"compound": "O=C(/C=C/C=C/CC/C=C/c1ccc2c(c1)OCO2)N1CCCC1", "data value": "35 ± 3%"}

Report % of basal activity after saturating concentrations for O=C(/C=C/C=C/c1ccc2c(c1)OCO2)N1CCCC1 please.
55 ± 5%

Report % of basal activity after saturating concentrations for CC(C)CNC(=O)/C=C/C=C/CCCCCC/C=C/c1ccc2c(c1)OCO2 please.
48 ± 2.8%

Report % of basal activity after saturating concentrations for CC(C)CNC(=O)/C=C/C=C/c1ccc2c(c1)OCO2 please.
50 ± 14%

---

# target system: hKCNK3 (Homo sapiens, UniProt O14649)
# Construct: expressed in transfected cells; host or cells: Xenopus laevis oocytes injected with cRNA (plasmid pIRES-CD8, gift of Dr. Fabrice Duprat)
# procedure summary: Two-electrode voltage clamp on Xenopus laevis oocytes expressing hKCNK3
# Type: cell-based
# Description: Human KCNK3 (TASK-1, K2P3.1) cloned into the expression vector pIRES-CD8 was a gift from Dr. Fabrice Duprat (Institut National de la Santé et de la Recherche Médicale, Antipolis, France). Human KCNK18 (hTRESK, K2P18.1), cloned into the plasmid pEXO, was a gift from Dr. P. Enyedi (Semmelweis University, Budapest, Hungary). These plasmids were linearized with the restriction enzymes BamHI and XbaI, respectively, and then used as templates for in vitro transcription. […]
value kind: IC50 (µM)
State the answer as a number, implicitly in µM.

Report IC50 for CC(C)CNC(=O)/C=C/C=C/CCCCCC/C=C/c1ccc2c(c1)OCO2 please.
90.9

---

# target system: mKCNK9 (Mus musculus)
# Construct: clone from Dr. D. Bayliss)
# Sequence (Q3LS21 whole entry): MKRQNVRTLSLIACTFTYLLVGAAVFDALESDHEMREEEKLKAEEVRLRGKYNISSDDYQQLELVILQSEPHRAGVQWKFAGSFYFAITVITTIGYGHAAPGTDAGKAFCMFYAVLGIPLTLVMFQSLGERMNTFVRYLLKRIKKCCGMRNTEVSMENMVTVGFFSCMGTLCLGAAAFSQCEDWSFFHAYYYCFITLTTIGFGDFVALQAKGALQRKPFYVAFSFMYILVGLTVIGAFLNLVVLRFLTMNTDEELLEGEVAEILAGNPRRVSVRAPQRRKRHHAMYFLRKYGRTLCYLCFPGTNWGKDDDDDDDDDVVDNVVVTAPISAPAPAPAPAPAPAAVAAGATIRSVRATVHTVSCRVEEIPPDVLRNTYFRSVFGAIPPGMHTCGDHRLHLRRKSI
# procedure summary: Two-electrode voltage clamp on Xenopus oocytes expressing mKCNK9
# reported conditions: 1–1000 μM
value kind: pIC50
Lab note — pIC50 values are minus log10 of concentrations in M.

Report pIC50 for O=C(/C=C/C=C/c1ccc2c(c1)OCO2)N1CCCCC1 please.
3.67

---

# target system: hKCNK3 (Homo sapiens, UniProt O14649)
# Construct: expressed in transfected cells; host or cells: Xenopus laevis oocytes injected with cRNA (plasmid pIRES-CD8, gift of Dr. Fabrice Duprat)
# procedure summary: Two-electrode voltage clamp on Xenopus laevis oocytes expressing hKCNK3
# Assay type: cell-based
# reported conditions: 1 mM, Xenopus oocytes
value kind: effect on basal activity of hKCNK3

{"compound": "O=C(/C=C/C=C/CC/C=C/c1ccc2c(c1)OCO2)N1CCCC1 [3b]", "data value": "most pronounced effect"}
{"compound": "O=C(/C=C/C=C/CCCCCC/C=C/c1ccc2c(c1)OCO2)N1CCCC1 [4b, brachyamide A]", "data value": "most pronounced effect"}

---

# target system: mKCNK3 (Mus musculus)
# Sequence (O35111 whole entry): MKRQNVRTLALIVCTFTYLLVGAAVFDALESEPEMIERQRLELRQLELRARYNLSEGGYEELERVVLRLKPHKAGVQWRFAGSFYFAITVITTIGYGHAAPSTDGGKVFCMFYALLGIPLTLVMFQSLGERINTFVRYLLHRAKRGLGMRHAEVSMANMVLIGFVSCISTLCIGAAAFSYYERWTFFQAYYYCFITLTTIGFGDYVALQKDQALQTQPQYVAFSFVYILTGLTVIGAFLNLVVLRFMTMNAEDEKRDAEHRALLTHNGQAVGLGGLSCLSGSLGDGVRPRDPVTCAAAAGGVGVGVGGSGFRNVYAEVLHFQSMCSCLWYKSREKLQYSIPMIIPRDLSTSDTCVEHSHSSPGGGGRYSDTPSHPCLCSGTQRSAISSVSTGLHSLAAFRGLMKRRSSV
# procedure summary: Two-electrode voltage clamp on Xenopus oocytes expressing mKCNK3
# reported conditions: 1–1000 μM
value kind: pIC50
Lab note — pIC50 values are minus log10 of concentrations in M.

Form field - read-out: pIC50; system: mKCNK3 (Mus musculus); submitted item: O=C(/C=C/C=C/c1ccc2c(c1)OCO2)N1CCCCC1
4.52
